assay: MRT(0 to t) in Sprague-Dawley rat at 50 mg/kg, ip measured upto 24 hrs by LC-MS analysis; type: ADME, organism-based; conditions: in vivo
MEASUREMENT_KIND: MRT last at 24 h

Reported MRT last at 24 h for Oc1c(Cc2nccc3cc4c(cc23)OCO4)ccc2c1OCO2 was 3.3 h

---

Items are presented alongside their recorded pIC50.
test system: MGC-803; experiment: Antiproliferative activity against human MGC-803 cells assessed as reduction in cell viability after 24 hrs by MTT assay; type: functional, cell-based; details: MGC-803, 24 h
pIC50 field: float, defined as -log10 of concentration (mol/L).

CCOC(=O)c1c(C(=O)c2nccc3cc4c(cc23)OCO4)ccc2c1OCO2
4.12

Reported pIC50 for O=c1[nH]cc(F)c(=O)[nH]1 was 4.54

Reported pIC50 for CN1CCc2cc3c(cc2C(=O)Cc2ccc4c(c2C1)OCO4)OCO3 was 4.02

Reported pIC50 for COc1ccc2c(c1OC)CN(C)CCc1cc3c(cc1C(=O)C2)OCO3 was 3.96

Reported pIC50 for O=c1c2c3c(ccc2cc2n1CCc1cc4c(cc1-2)OCO4)OCO3 was 4.21

Reported pIC50 for COc1cc2c(cc1C(=O)c1nccc3cc4c(cc13)OCO4)OCO2 was 5.11

Reported pIC50 for CC(=O)c1ccc2c(c1Cn1ccc3cc4c(cc3c1=O)OCO4)OCO2 was 4.10

Reported pIC50 for Oc1c(Cc2nccc3cc4c(cc23)OCO4)ccc2c1OCO2 was 5.29

Reported pIC50 for COc1cc2c(cc1OC)C1Cc3ccc4c(c3CN1CC2)OCO4 (stereo unspecified) was 4.03

Values were extracted from ChEMBL document CHEMBL5143625.
